experiment: Solubility test; format: physicochemical; conditions: ethanol, organic solvent or mixture, thermodynamic from solid
measured.metric: solubility

Ask: Given the entry C/C1=C/C[C@@H](/C(C)=C/c2csc(C)n2)OC(=O)C[C@H](O)C(C)(C)C(=O)[C@H](C)[C@@H](O)[C@@H](C)CCC1 [semihydrate crystal] , report its measured solubility.
Reply: > 50 mg/mL

====

assay: PK study on intravenous administration of the pharmaceutical composition containing Utidelone semihydrate crystal; assay type: in vivo; settings: human, in vivo, iv, 40 mg/m2, intravenous infusion 40 mg/m2 once a day for 5 days; 1st day; read-out: elimination half-life t½ in plasma (converted)
measured.metric: half-life (h)
Quick reminder: number only, in h, skip the unit.

Ask: Given the entry C/C1=C/C[C@@H](/C(C)=C/c2csc(C)n2)OC(=O)C[C@H](O)C(C)(C)C(=O)[C@H](C)[C@@H](O)[C@@H](C)CCC1 [Utidelone] , report its measured half-life.
Reply: 8.6

====

test: Solubility test; format: physicochemical; settings: benzyl alcohol, organic solvent or mixture, thermodynamic from solid
measured.metric: solubility

Ask: Given the entry C/C1=C/C[C@@H](/C(C)=C/c2csc(C)n2)OC(=O)C[C@H](O)C(C)(C)C(=O)[C@H](C)[C@@H](O)[C@@H](C)CCC1 [semihydrate crystal] , report its measured solubility.
Reply: > 50 mg/mL

====

assay: Solubility test; type: physicochemical; settings: 50% ethanol, 30% propylene glycol, 20% castor oil, organic solvent or mixture, thermodynamic from solid
measured.metric: solubility

Ask: Given the entry C/C1=C/C[C@@H](/C(C)=C/c2csc(C)n2)OC(=O)C[C@H](O)C(C)(C)C(=O)[C@H](C)[C@@H](O)[C@@H](C)CCC1 [semihydrate crystal] , report its measured solubility.
Reply: > 100 mg/mL

====

test: PK study on intravenous administration of the pharmaceutical composition containing Utidelone semihydrate crystal; format: in vivo; conditions: human, in vivo, iv, 40 mg/m2, intravenous infusion 40 mg/m2 once a day for 5 days; 1st day; read-out: AUC(0-24)
measured.metric: AUC(0-t)
Please make sure the unit comes right after the number.

Ask: Given the entry C/C1=C/C[C@@H](/C(C)=C/c2csc(C)n2)OC(=O)C[C@H](O)C(C)(C)C(=O)[C@H](C)[C@@H](O)[C@@H](C)CCC1 , report its measured AUC(0-t).
Reply: 4180 ng·h/mL

====

assay: Solubility test; assay type: physicochemical; conditions: methanol, organic solvent or mixture, thermodynamic from solid
measured.metric: solubility

Ask: Given the entry C/C1=C/C[C@@H](/C(C)=C/c2csc(C)n2)OC(=O)C[C@H](O)C(C)(C)C(=O)[C@H](C)[C@@H](O)[C@@H](C)CCC1 [semihydrate crystal] , report its measured solubility.
Reply: > 50 mg/mL
